Quick note: these are pKi numbers for system: hCA XII (Homo sapiens, UniProt O43570)
Sequence (O43570 25-354): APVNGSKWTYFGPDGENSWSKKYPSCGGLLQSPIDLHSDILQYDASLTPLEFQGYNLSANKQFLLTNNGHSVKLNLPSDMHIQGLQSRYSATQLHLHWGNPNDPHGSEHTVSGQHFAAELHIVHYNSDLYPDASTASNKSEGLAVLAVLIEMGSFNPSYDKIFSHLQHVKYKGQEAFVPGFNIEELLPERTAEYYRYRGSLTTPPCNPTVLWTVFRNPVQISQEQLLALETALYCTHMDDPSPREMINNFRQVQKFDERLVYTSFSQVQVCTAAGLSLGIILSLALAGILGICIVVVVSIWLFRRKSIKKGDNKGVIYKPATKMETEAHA
pKi: −log10 of the molar value.

molecule	pKi
O=C(COc1ccc2oc(=O)ccc2c1)NNC(=S)Nc1cccc([N+](=O)[O-])c1 [Compound 21a]	6.48
O=C(COc1ccc2oc(=O)ccc2c1)NNC(=S)Nc1ccccc1 [Compound 14a]	6.13
O=C(COc1ccc2ccc(=O)oc2c1)NNC(=S)Nc1ccc(C(F)(F)F)cc1 [Compound 20b]	7.25
O=C(COc1ccc2ccc(=O)oc2c1)NNC(=S)Nc1ccccc1 [Compound 14b]	6.13
Cc1ccc(NC(=S)NNC(=O)COc2ccc3oc(=O)ccc3c2)cc1 [Compound 15a]	6.15

====

Reported melting point is given for each of the following compounds.

compound	melting point
O=C(COc1ccc2oc(=O)ccc2c1)NNC(=S)Nc1cccc([N+](=O)[O-])c1 [Compound 21a]	210 to 212 °C
N#Cc1ccc(NC(=S)NNC(=O)COc2ccc3ccc(=O)oc3c2)cc1 [Compound 23b]	224 to 226 °C
O=C(COc1ccc2ccc(=O)oc2c1)NNC(=S)Nc1ccc(Cl)cc1 [Compound 16b]	202 to 203 °C
O=C(COc1ccc2ccc(=O)oc2c1)NNC(=S)Nc1cccc(I)c1 [Compound 19b]	168 to 169 °C
O=C(COc1ccc2oc(=O)ccc2c1)NNC(=S)Nc1ccc(I)cc1 [Compound 18a]	160 to 162 °C
O=C(COc1ccc2ccc(=O)oc2c1)NNC(=S)Nc1cccc([N+](=O)[O-])c1 [Compound 21b]	214 to 215 °C
Cc1ccc(NC(=S)NNC(=O)COc2ccc3ccc(=O)oc3c2)cc1 [Compound 15b]	147 to 149 °C (dec.)
CSc1ccc(NC(=S)NNC(=O)COc2ccc3oc(=O)ccc3c2)cc1 [Compound 22a]	148 to 150 °C
O=C(COc1ccc2ccc(=O)oc2c1)NNC(=S)Nc1ccc(F)cc1 [Compound 17b]	119 to 121 °C (dec.)

====

Reported log10 Ki is given for each of the following compounds.
# targetDesc: hCA IX (Homo sapiens)
# Construct: made in house
# experiment: stopped flow CO2 hydrase assay, hCA IX
# Type: biochemical
# measurementContext: mean from 3 assays, errors ±5–10%; 6 h preincubation
observationType: log10 Ki (log10 of the value in nM)

compound	log10 Ki
Cc1ccc(NC(=S)NNC(=O)COc2ccc3oc(=O)ccc3c2)cc1 [Compound 15a]	2.37
O=C(COc1ccc2ccc(=O)oc2c1)NNC(=S)Nc1ccc(Cl)cc1 [Compound 16b]	1.74
O=C(COc1ccc2oc(=O)ccc2c1)NNC(=S)Nc1ccccc1 [Compound 14a]	0.94
O=C(COc1ccc2oc(=O)ccc2c1)NNC(=S)Nc1ccc(C(F)(F)F)cc1 [Compound 20a]	1.96
O=C(COc1ccc2ccc(=O)oc2c1)NNC(=S)Nc1cccc(I)c1 [Compound 19b]	0.97
Cc1ccc(NC(=S)NNC(=O)COc2ccc3ccc(=O)oc3c2)cc1 [Compound 15b]	1.89
O=C(COc1ccc2oc(=O)ccc2c1)NNC(=S)Nc1ccc(F)cc1 [Compound 17a]	1.59
CSc1ccc(NC(=S)NNC(=O)COc2ccc3ccc(=O)oc3c2)cc1 [Compound 22b]	1.52
O=C(COc1ccc2ccc(=O)oc2c1)NNC(=S)Nc1ccc(F)cc1 [Compound 17b]	1.81

====

pKi: −log10 of the molar value.
Quick note: these are pKi numbers for system: hCA XII (Homo sapiens, UniProt O43570)

compound	pKi
O=C(COc1ccc2oc(=O)ccc2c1)NNC(=S)Nc1cccc(I)c1 [Compound 19a]	7.10
O=C(COc1ccc2ccc(=O)oc2c1)NNC(=S)Nc1cccc(I)c1 [Compound 19b]	6.24
Cc1ccc(NC(=S)NNC(=O)COc2ccc3ccc(=O)oc3c2)cc1 [Compound 15b]	6.16
CSc1ccc(NC(=S)NNC(=O)COc2ccc3oc(=O)ccc3c2)cc1 [Compound 22a]	8.40
O=C(COc1ccc2ccc(=O)oc2c1)NNC(=S)Nc1ccc(F)cc1 [Compound 17b]	6.13
O=C(COc1ccc2ccc(=O)oc2c1)NNC(=S)Nc1ccc(Cl)cc1 [Compound 16b]	6.06
O=C(COc1ccc2oc(=O)ccc2c1)NNC(=S)Nc1ccc(I)cc1 [Compound 18a]	8.08
CSc1ccc(NC(=S)NNC(=O)COc2ccc3ccc(=O)oc3c2)cc1 [Compound 22b]	8.34
O=C(COc1ccc2ccc(=O)oc2c1)NNC(=S)Nc1cccc([N+](=O)[O-])c1 [Compound 21b]	8.07
